- target.or.system: HLA-A*32:15
- experiment.description: IEDB peptide-MHC binding, purified MHC/competitive/fluorescence; filed as Kd, often an IC50 or EC50 that approximates it; bounds were set here for any values at or beyond the usual limits of such assays
- applied.conditions: source organism: Yersinia pestis Nepal516
reported.property: Kd (nM)
Reply with just the number (in nM).

For the sequence MMMSTAVAF , give its reported Kd.
248

* * *

- target.or.system: HLA-C*12:03
- experiment.description: IEDB peptide-MHC binding, purified MHC/direct/fluorescence; filed as Kd, often an IC50 or EC50 that approximates it; bounds were set here for any values at or beyond the usual limits of such assays
- applied.conditions: source organism: Listeria monocytogenes EGD-e
reported.property: pKd
Bear in mind: pKd is minus log10 of a mol/L concentration; give just that figure.

For the sequence RMMGKTNPL , give its reported pKd.
6.81
